# tested_on: T1, recombinant human Tau monomer, 2N4R isoform (amino acids 2-441) (human, UniProt P10636-8 2-441)
# T1 construct: range 2-441; N-terminal His-tag removed with TEV protease; also called monomeric Tau
# assay_summary: SPR screen, hIgG captured, Tau monomer analyte
assay_metric: pKd
The quantity pKd is defined as the negative base-10 logarithm of the molar concentration.

The examples below pair each entry with its known result.
>  <binder>
hu94B2 HC4 + LC13 (antibody, V domains shown) VH: EVQLVQSGAEVKKPGASVKVSCKASGYSLTGYTMNWVRQAPGQGLEWIGLISPYNGVTSYNQKFKGRATLTRDKSTSTAYLELSSLRSEDTAVYYCARQGAYWGQGTLVTVSS VL: DIVMTQTPLSLPVTPGQPASISCKSSQSLLDSDGKTYLNWLLQKPGQSPQRLIYLVSKLDSGVPDRFSGSGSGTDFTLKISRVEAEDVGVYYCWQGTHFPWTFGQGTKVEIK

>  <pKd>
7.19

$$$$
>  <binder>
hu94B2 HC8 + LC13 (antibody, V domains shown) VH: EVQLVQSGAEVKKPGASVKVSCKASGYSLTGYTMNWVRQAPGQGLEWIGLISPYNGVTSYNQKFKGRVTITVDTSTSTAYLELSSLRSEDTAVYYCARQGAYWGQGTLVTVSS VL: DIVMTQTPLSLPVTPGQPASISCKSSQSLLDSDGKTYLNWLLQKPGQSPQRLIYLVSKLDSGVPDRFSGSGSGTDFTLKISRVEAEDVGVYYCWQGTHFPWTFGQGTKVEIK

>  <pKd>
8.62

$$$$

API: the following record is the query input.
Return pKd (reported value) for this binder: hu94B2 HC2 + LC13 (antibody, V domains shown) VH: EVQLVQSGAEVKKPGASVKVSCKASGYSLTGYTMNWVRQAPGQGLEWIGLISPYNGVTSYNQKFKGRVTLTVDKSTSTAYLELSSLRSEDTAVYYCARQGAYWGQGTLVTVSS VL: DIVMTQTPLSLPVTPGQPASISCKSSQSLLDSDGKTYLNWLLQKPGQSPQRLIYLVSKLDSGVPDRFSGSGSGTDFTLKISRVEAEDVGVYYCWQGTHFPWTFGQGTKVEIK 8.13

These measurements were taken from patent US20190367592A1.
